Test system: SF-268
Experiment: Growth inhibition of human SF268 cells after 48 hrs by sulforhodamine B assay
Type: functional
Details: SF-268, 48 h, read-out: LC50 (the source's name)
reported.metric: CC50

1) COc1ccc(/C=N/c2nc3[nH]nc(C)n3c(=O)c2S(=O)(=O)NN2C(=O)C(CN3CCOCC3)SC2c2ccc(OC)cc2)cc1 (centres undefined); > 100 µM
2) COc1ccc(/C=N/c2nc3[nH]nc(C)n3c(=O)c2S(=O)(=O)NN2C(=O)C(CN3CCN(C)CC3)SC2c2cccs2)cc1 (centres undefined); > 100 µM
3) COc1ccc(/C=N/c2nc3[nH]nc(C)n3c(=O)c2S(=O)(=O)NN2C(=O)C(CN3CCOCC3)SC2c2cccs2)cc1 (centres undefined); > 100 µM

Consider now this further compound.
// query Request the reported CC50 associated with COc1ccc(/C=N/c2nc3[nH]nc(C)n3c(=O)c2S(=O)(=O)NN2C(=O)C(CN3CCN(C)CC3)SC2c2ccc(OC)cc2)cc1 (centres undefined)
// result 99.6 µM
